# system_name: T1, biotinylated human plasma Kallikrein (human, UniProt P03952 20-638, biotinylated)
# T1 construct: also called Biotinylated hPK
# assay_remarks: phage binding assay, signal:background
Numbered stars: 1 amine (or outer) side, 2 acyl side, 3 side chain; on linkers, the order of the positions; unused ones are H or OH. Bridge positions count the residues as written; N and C are the ends. Ends that are not written are not given here. TBMB = c1c(C[*:1])cc(C[*:3])cc1C[*:2]
A collection of binders and their measured Binding assay signal

Would you mind telling me what Binding assay signal value was observed for CSWPARCTHSHLC (linker 1-7-13 via TBMB (inferred)) [SEQ ID NO 137] ?
72

Would you mind telling me what Binding assay signal value was observed for CHWPARCMHQDLC (linker 1-7-13 via TBMB (inferred)) [SEQ ID NO 140] ?
71

Would you mind telling me what Binding assay signal value was observed for CSWPARCIHQDLC (linker 1-7-13 via TBMB (inferred)) [SEQ ID NO 147] ?
68

Values compiled from patent US10800813.
